Biological target: IAPP (Homo sapiens)
Construct: which is a 37 amino acid peptide, derived from a larger precursor peptide, called pro-IAPP
Sequence (P10997 34-70 limits assumed): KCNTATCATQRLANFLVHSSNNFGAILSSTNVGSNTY
Assay: MS (electrospray mass spectrometry) binding assay for IAPP
Details: Table 3D; 40 μM Aβ peptide, 400 μM compound (so in the source)
Property Label: MS binding IAPP

Sample answers from the record:
# Mol Smiles, Target Of Assay, Result
data = [
    ("Nc1cccc2c1CCN(CCCS(=O)(=O)O)C2", "IAPP (Homo sapiens)", "+ (20-39% binding=(+))"),
    ("CC(=O)N(C(C)=O)c1cccc2c[n+](CCCS(=O)(=O)[O-])ccc12", "IAPP (Homo sapiens)", "− (<20%=(−))"),
    ("O=S(=O)(O)CCCNc1ccccc1O", "IAPP (Homo sapiens)", "+ (20-39% binding=(+))"),
    ("O=S(=O)(O)CCCN1CCc2ccc(Br)cc2C1", "IAPP (Homo sapiens)", "+ (20-39% binding=(+))"),
    ("CC(C)(C)OC(=O)NCCCS(=O)(=O)O", "IAPP (Homo sapiens)", "+ (20-39% binding=(+))"),
]

Would you kindly look at the next entry?
**Q:** Looking for the measured MS binding IAPP of O=S(=O)(O)CCCn1cc[n+](CCCS(=O)(=O)O)c1 , can you help?
**A:** − (<20%=(−))
